Source of measurements: ChEMBL document CHEMBL3433997

Reported inhibition values follow for various molecules
- SYSTEM: Hexose transporter 1 (Plasmodium falciparum)
- MEASUREMENT_DESCRIPTION: ST_JUDE_LEISH: Cytotoxicity at 2uM final concentration against transgenic Leishmania Mexicana promastigotes LmPfHT that are glucose transport deficient and complemented with the Plasmodium falciparum hexose transporter. Activity is measured by DNA content using SYBR green in vitro
- Assay type: functional
READOUT_TYPE: inhibition

{"columns": ["MOLECULE", "SYSTEM", "READOUT_TYPE", "ENDPOINT_RESULT"],
 "data": [
  ["CN(C)CCOc1ccc2nc(-c3cccc(OCc4ccccc4)c3)[nH]c2c1C#N", "Hexose transporter 1 (Plasmodium falciparum)", "inhibition", "1.25%"],
  ["CN(C)CCCOc1ccc(-c2csc(NC(=N)NCc3ccccc3)n2)cc1", "Hexose transporter 1 (Plasmodium falciparum)", "inhibition", "6.08%"],
  ["CCNC(=O)Nc1ccc(-c2cnc(N)c(-c3nc4ccc(OC)cc4[nH]3)c2)cc1", "Hexose transporter 1 (Plasmodium falciparum)", "inhibition", "4.42%"],
  ["CCCCCC(C)C(C)c1cc(O)c2c(c1)OC(C)(C)CC2c1cc[n+]([O-])cc1 (centres undefined)", "Hexose transporter 1 (Plasmodium falciparum)", "inhibition", "4.07%"],
  ["O=C(Nc1ccc(-c2ccc(-c3nc4ccccc4[nH]3)s2)cc1)Nc1ccc(F)c(F)c1F", "Hexose transporter 1 (Plasmodium falciparum)", "inhibition", "-1.5%"],
  ["Cc1nc(C)c(-c2ccc(-c3ccc(F)cc3)cc2)c(O)c1Cl", "Hexose transporter 1 (Plasmodium falciparum)", "inhibition", "2.48%"],
  ["OC(CNC1CCCCC1)Cn1c2ccc(I)cc2c2cc(I)ccc21 (centres undefined)", "Hexose transporter 1 (Plasmodium falciparum)", "inhibition", "1.51%"],
  ["C=C[C@]1(C)C[C@@H](OC(=O)CNC[C@@H](O)CN2C[C@H](c3ccnc4ccc(OC)nc34)OC2=O)[C@@]2(C)[C@@H]3C(=O)CC[C@@]3(CC[C@@H]2C)[C@@H](C)[C@@H]1O", "Hexose transporter 1 (Plasmodium falciparum)", "inhibition", "1.68%"],
  ["CN(C)c1ccc(CN2CCCCC(NC(=O)c3cc(-c4ccccc4Cl)cs3)C2)cc1 (centres undefined)", "Hexose transporter 1 (Plasmodium falciparum)", "inhibition", "2.86%"],
  ["CN1CCN(CCCN(Cc2cccc(-c3ccc(CNCc4ccc5c(c4)OCO5)cc3)c2)C(=O)CCC2CCCC2)CC1", "Hexose transporter 1 (Plasmodium falciparum)", "inhibition", "45.7%"],
  ["CC1(C)N=C(N)N=C(N)N1OCCc1ccc2ccccc2c1", "Hexose transporter 1 (Plasmodium falciparum)", "inhibition", "1.47%"],
  ["CC(C)CN1CCCN(Cc2cccc(NC(=O)c3cc4ccccc4s3)c2)CC1", "Hexose transporter 1 (Plasmodium falciparum)", "inhibition", "-0.28%"],
  ["Cn1nc2ccc3ccccc3c2nc1=N", "Hexose transporter 1 (Plasmodium falciparum)", "inhibition", "44.1%"],
  ["COc1cccc(CN2CCCN(Cc3cccc(NC(=O)c4ccc(Cl)c(Cl)c4)c3)CC2)c1", "Hexose transporter 1 (Plasmodium falciparum)", "inhibition", "-0.94%"],
  ["CC(C)(C)c1ccc(NC(=O)c2cccc(CN3CCCN(Cc4ccsc4)CC3)c2)cc1", "Hexose transporter 1 (Plasmodium falciparum)", "inhibition", "1.84%"],
  ["COc1ccc2c(c1)CC(CNC[C@H](O)c1cccc(Cl)c1)CC2 (some centres undefined)", "Hexose transporter 1 (Plasmodium falciparum)", "inhibition", "0.78%"],
  ["O=C(Nc1cccc(-c2cccc(CN3CCCC3)c2)c1)c1ccc(Cl)cc1", "Hexose transporter 1 (Plasmodium falciparum)", "inhibition", "1.32%"],
  ["CC[C@H](C)CNC(=O)c1cncc(-c2cccc(CNCCCc3ccccc3)c2)c1", "Hexose transporter 1 (Plasmodium falciparum)", "inhibition", "3.06%"],
  ["CN1CCN(c2nc(NCCNc3ccc([N+](=O)[O-])cc3)c3ccccc3n2)CC1", "Hexose transporter 1 (Plasmodium falciparum)", "inhibition", "0.91%"],
  ["COC(=O)C1=CNC=C(C(=O)OC)C1c1ccc(Cl)c([N+](=O)[O-])c1", "Hexose transporter 1 (Plasmodium falciparum)", "inhibition", "8.44%"],
  ["O=C(OCc1ccccn1)c1nc2ccccc2[nH]1", "Hexose transporter 1 (Plasmodium falciparum)", "inhibition", "2.57%"],
  ["COc1ccc2nccc([C@@H](O)CN3CCC(NS(=O)(=O)c4cc(Br)c(Br)s4)CC3)c2c1", "Hexose transporter 1 (Plasmodium falciparum)", "inhibition", "2.36%"],
  ["CN1CCN(Cc2ccc(-c3ccc4c(Nc5ccc(Cl)cc5F)ccnc4c3)o2)CC1", "Hexose transporter 1 (Plasmodium falciparum)", "inhibition", "11.8%"],
  ["COc1cc(CCCOc2c(N)nc(N)nc2N)cc(OC)c1OC", "Hexose transporter 1 (Plasmodium falciparum)", "inhibition", "3.75%"],
  ["COc1cc2c(cc1C(F)(F)F)N(C(=O)Nc1cc(F)cc(-c3cccnn3)c1)CC2", "Hexose transporter 1 (Plasmodium falciparum)", "inhibition", "-2.17%"],
  ["O=C(COc1ccccc1Cc1ccccc1)Nc1cc(Cl)ccc1-n1cncn1", "Hexose transporter 1 (Plasmodium falciparum)", "inhibition", "4.62%"],
  ["O=C(Nc1ccnc(N2CC3CC2CN3Cc2cccc(O)c2)c1)c1ccc(F)cc1 (centres undefined)", "Hexose transporter 1 (Plasmodium falciparum)", "inhibition", "-1.27%"],
  ["COCCN1CCC(CN(C)CC(C)(C)c2nc(-c3ccc(Cl)c(O)c3)c(-c3ccncc3)[nH]2)CC1", "Hexose transporter 1 (Plasmodium falciparum)", "inhibition", "5.16%"],
  ["CCCCC1(c2ccc(F)cc2)NC(=O)N(CC(=O)c2cc(C)n(Cc3ccco3)c2C)C1=O (centres undefined)", "Hexose transporter 1 (Plasmodium falciparum)", "inhibition", "0.18%"],
  ["S=C(Nc1ccc(Cl)cc1)Nc1ccc(Nc2ccccc2)cc1", "Hexose transporter 1 (Plasmodium falciparum)", "inhibition", "5.37%"],
  ["O=C(Nc1ccc2c(c1)CCNCC2)Nc1ccc2ccccc2c1", "Hexose transporter 1 (Plasmodium falciparum)", "inhibition", "8.46%"],
  ["CCCCCC(C)C(C)c1cc(O)c2c(c1)OC(C)(C)CC2(O)c1ccnn1C (centres undefined)", "Hexose transporter 1 (Plasmodium falciparum)", "inhibition", "3.23%"],
  ["CCc1ccc(CNCC(CCNc2cc(=O)c3ccccc3[nH]2)NCc2cc(Br)cc(Br)c2)o1 (centres undefined)", "Hexose transporter 1 (Plasmodium falciparum)", "inhibition", "1.71%"],
  ["O=C(/C=C/c1ccc(Cl)c(Cl)c1)NCCCCCN1CCCN(C(=O)Nc2ccc(Cl)c(Cl)c2)CC1", "Hexose transporter 1 (Plasmodium falciparum)", "inhibition", "-0.4%"],
  ["COc1ccc(N(c2nc(-c3cc(Cl)ccc3Cl)cs2)C2CCNC2)cc1 (centres undefined)", "Hexose transporter 1 (Plasmodium falciparum)", "inhibition", "4.65%"],
  ["FC(F)(F)c1cccc(CNCC2CCN(Cc3ccc4c(c3)OCO4)CC2)c1", "Hexose transporter 1 (Plasmodium falciparum)", "inhibition", "12.1%"],
  ["O=C(NC(CCCN1CCC2(CC1)OCc1ccccc12)c1ccc(Cl)c(Cl)c1)c1cc(C(F)(F)F)cc(C(F)(F)F)c1 (centres undefined)", "Hexose transporter 1 (Plasmodium falciparum)", "inhibition", "0.26%"],
  ["COc1ccc(CNc2nc(NCc3ccccc3)c3cc(OC)c(OC)cc3n2)cc1OC", "Hexose transporter 1 (Plasmodium falciparum)", "inhibition", "5.92%"],
  ["COCCOc1ccc(Nc2nccc(-c3c(-c4cccc(NC(=O)c5c(F)cccc5F)c4)nn4ccccc34)n2)cc1F", "Hexose transporter 1 (Plasmodium falciparum)", "inhibition", "10.9%"]
]}
